Test system: IL-1beta
PROTOCOL TEXT: Cytokine release after LPS induction on human whole blood: IL-1β
Assay type: cell-based
CONDITIONS: Homo sapiens, 18 h, read-out: Whole Blood: IL-1β IC50
pIC50: −log10 of the molar value.
MEASURED QUANTITY: pIC50

Documented pIC50 of O=C(O)c1cc(NC(=O)c2cc(O)c(C(=O)Nc3ccccc3-c3nnn[nH]3)cc2O)ccc1O [Ic-001a-Tz/004a] : < 4.00

---

A collection of compounds and their measured IC50
ASSAYED SYSTEM: VEGFR-2 (Homo sapiens, UniProt P35968)
Construct: endogenous in cells
Sequence (P35968 20-1356): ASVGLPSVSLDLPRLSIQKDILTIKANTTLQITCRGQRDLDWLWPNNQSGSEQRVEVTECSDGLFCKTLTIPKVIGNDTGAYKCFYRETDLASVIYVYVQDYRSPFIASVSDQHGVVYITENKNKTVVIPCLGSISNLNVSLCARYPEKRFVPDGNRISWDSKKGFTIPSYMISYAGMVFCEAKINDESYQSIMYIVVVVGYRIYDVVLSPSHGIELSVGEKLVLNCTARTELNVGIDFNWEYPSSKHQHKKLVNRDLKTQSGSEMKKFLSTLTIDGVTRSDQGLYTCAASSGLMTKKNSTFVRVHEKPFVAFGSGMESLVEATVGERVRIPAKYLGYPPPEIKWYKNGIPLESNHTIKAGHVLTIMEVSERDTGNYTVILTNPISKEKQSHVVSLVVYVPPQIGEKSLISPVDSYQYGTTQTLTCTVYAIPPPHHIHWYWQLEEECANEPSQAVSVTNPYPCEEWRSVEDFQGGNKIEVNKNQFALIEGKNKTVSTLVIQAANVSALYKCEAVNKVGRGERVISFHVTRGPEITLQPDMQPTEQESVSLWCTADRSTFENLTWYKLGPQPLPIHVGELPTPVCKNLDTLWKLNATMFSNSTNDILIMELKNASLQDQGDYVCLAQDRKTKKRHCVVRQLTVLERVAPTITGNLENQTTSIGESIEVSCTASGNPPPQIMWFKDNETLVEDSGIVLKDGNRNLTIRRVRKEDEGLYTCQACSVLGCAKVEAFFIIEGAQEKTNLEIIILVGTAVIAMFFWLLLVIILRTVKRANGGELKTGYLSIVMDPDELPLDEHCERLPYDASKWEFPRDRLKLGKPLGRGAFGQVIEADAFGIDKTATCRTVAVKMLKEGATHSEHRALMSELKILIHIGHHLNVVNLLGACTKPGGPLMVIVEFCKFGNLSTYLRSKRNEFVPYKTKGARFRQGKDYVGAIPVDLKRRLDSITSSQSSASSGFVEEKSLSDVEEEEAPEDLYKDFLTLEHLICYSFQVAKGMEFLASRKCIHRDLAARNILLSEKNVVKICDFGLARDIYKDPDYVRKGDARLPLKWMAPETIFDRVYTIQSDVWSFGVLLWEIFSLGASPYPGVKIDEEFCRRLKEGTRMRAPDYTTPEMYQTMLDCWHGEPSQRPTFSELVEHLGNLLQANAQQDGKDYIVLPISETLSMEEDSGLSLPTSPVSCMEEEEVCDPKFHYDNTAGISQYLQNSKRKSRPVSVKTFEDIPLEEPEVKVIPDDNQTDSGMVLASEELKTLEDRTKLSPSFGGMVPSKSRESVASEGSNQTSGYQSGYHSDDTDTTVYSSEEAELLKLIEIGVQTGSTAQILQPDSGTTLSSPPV
PROTOCOL TEXT: VEGF-165 induced phosphorylation of VEGF-Receptor on HUVEC
CONDITIONS: HUVEC preincubated 60 min, VEGF165 25 ng/mL 2 min; read-out: VEGFR-Phosphorylation inhibition IC50
Numbers only; they are read as µM.

compound="O=C(O)c1cc(O)cc(C(=O)NCc2ccc(O)c(O)c2)c1O [IIa-035a]" measured_quantity=IC50 reported=0.52
compound="O=C(O)c1cc(O)c(C(=O)Nc2ccc(S(=O)(=O)O)cc2)cc1O [Ia-003c]" measured_quantity=IC50 reported=0.4
compound="O=C(O)Cc1cc(O)c(C(=O)Nc2cc(C(=O)O)cc(C(=O)O)c2)cc1O [IIIa-015a]" measured_quantity=IC50 reported=0.89
compound="CCOC(=O)c1cc(O)c(CN(Cc2cc(O)c(C(=O)OCC)cc2O)Cc2cc(O)c(C(=O)OCC)cc2O)cc1O [IIIc-061a-E3]" measured_quantity=IC50 reported=0.34
compound="O=C(O)c1cc(NC(=O)c2cc(O)c(C(=O)O)cc2O)ccc1O [Ia-004a]" measured_quantity=IC50 reported=7.7

Measured IC50, O=C(O)c1cc(O)c(C(=O)NC(Cc2ccc(O)c(O)c2)C(=O)O)cc1O (stereo not drawn) [Ia-035a-3] : 10

IC50 reading for O=C(O)Cc1cc(O)c(C(=O)Nc2c(C(=O)O)cccc2C(=O)O)cc1O [IIIa-013a] : 1.3
